Could you please report measured MIC for the items listed next?
- Test system: Staphylococcus aureus Oxford
- Protocol Notes: minimum inhibitory concentration, Staphylococcus aureus Oxford (DST agar+10% horse blood)
- Type: cell-based
Give bare numbers, in µg/mL.

Worked set:
CC[C@@H]1C(=O)N2C(C(=O)[O-])=C(S/C=C/NC(C)=O)C[C@H]12.[Na+] [e73]	0.6
CC(=O)N/C=C/SC1=C(C(=O)[O-])N2C(=O)[C@H](C(C)SCc3ccccc3)[C@H]2C1.[Na+] (some centres unmarked) [e94]	0.4
C=CCSC(C)[C@H]1C(=O)N2C(C(=O)[O-])=C(S/C=C/NC(C)=O)C[C@H]12.[Na+] (some centres unmarked) [e96]	0.8
CC(=O)N/C=C/SC1=C(C(=O)[O-])N2C(=O)[C@H](C(C)SCCNC(C)=O)[C@H]2C1.[Na+] (some centres unmarked) [e98]	1.2

Continue with the compound presented below.
Ask: Specify measured MIC for CC[C@@H]1C(=O)N2C(C(=O)[O-])=C(SCCNC(C)=O)C[C@H]12.[Na+] [e63] .
Reply: 0.6

----------
- Test system: Bacillus subtilis A
- Protocol Notes: minimum inhibitory concentration, Bacillus subtilis A (DST agar+10% horse blood)
- Type: cell-based
Could you please report measured MIC for the items listed next?

Worked set:
CC(=O)N/C=C/SC1=C(C(=O)[O-])N2C(=O)[C@H](C(C)SCc3ccccc3)[C@H]2C1.[Na+] (stereo partly shown) [e94]	1.6 µg/mL
CC(=O)N/C=C/SC1=C(C(=O)[O-])N2C(=O)[C@H](C(C)SCCNC(C)=O)[C@H]2C1.[Na+] (stereo partly shown) [e98]	2.5 µg/mL
CC[C@@H]1C(=O)N2C(C(=O)[O-])=C(S/C=C/NC(C)=O)C[C@H]12.[Na+] [e73]	1.2 µg/mL

Continue with the molecule presented below.
Ask: Specify measured MIC for C=CCSC(C)[C@H]1C(=O)N2C(C(=O)[O-])=C(S/C=C/NC(C)=O)C[C@H]12.[Na+] (stereo partly shown) [e96] .
Reply: 1.6 µg/mL

----------
- Test system: Klebsiella aerogenes A
- Protocol Notes: minimum inhibitory concentration, Klebsiella aerogenes A (DST agar+10% horse blood)
- Type: cell-based
- Experimental: The minimum inhibitory concentrations (MIC) of the compound (e54) was determined using a standard DST agar+10% horse blood substrate. The tests used an undiluted inoculum of bacteria. […] The minimum inhibitory concentrations (MIC) of this compound was determined using a standard DST agar+10% horse blood substrate. The minimum inhibitory concentrations (MIC) of this compound was determined using a standard DST agar+10% horse blood substrate. The tests used an undiluted inoculum of bacteria.
MIC strictly under 2 µg/mL means fulfilled; at 2 µg/mL or over means not fulfilled.

CC(=O)N/C=C/SC1=C(C(=O)[O-])N2C(=O)[C@H](C(C)SCCNC(C)=O)[C@H]2C1.[Na+] (some centres unmarked)	not fulfilled
C=CCSC(C)[C@H]1C(=O)N2C(C(=O)[O-])=C(S/C=C/NC(C)=O)C[C@H]12.[Na+] (some centres unmarked)	not fulfilled

Ask: Problem: For the molecule `CC[C@@H]1C(=O)N2C(C(=O)[O-])=C(SCCNC(C)=O)C[C@H]12.[Na+]` , is MIC under 2 µg/mL?
Reply: fulfilled

Ask: Problem: For the molecule CC(=O)N/C=C/SC1=C(C(=O)[O-])N2C(=O)[C@H](C(C)SCc3ccccc3)[C@H]2C1.[Na+] (some centres unmarked) , is MIC under 2 µg/mL?
Reply: not fulfilled

Ask: Problem: For the molecule `CC[C@@H]1C(=O)N2C(C(=O)[O-])=C(S/C=C/NC(C)=O)C[C@H]12.[Na+]` , is MIC under 2 µg/mL?
Reply: not fulfilled
